# credit: a melting point compilation (Tetko et al.; mined from patent text by program, amines drawn as free bases though some values may be those of a salt)

The following compounds are listed with their measured melting point values.

Examples with their reported melting point follow.
Cc1nc(N2CCc3ccccc3CC2)c(C#N)c(=O)n1N(C)C(=O)OC(C)(C)C    164 to 166 °C
CC(C)n1cc(-c2cnc3c(c2)nnn3Cc2ccc3ncccc3c2)cn1    126 to 128 °C
Cn1c(C(F)(F)F)cc(=O)n(-c2cc(S(=O)(=O)NC(=O)OCc3ccccc3)c(Cl)cc2F)c1=O    231 to 232 °C
CC(C)(C)c1cc(C(C)(C)C)n(Cc2ccc(CO)cc2)n1    121 to 122 °C
COC(=O)C1C(=O)Nc2ccc(C(F)(F)F)cc2CC1c1ccccc1Cl (centres undefined)    183 to 184 °C
CCc1nccn1CCc1ccc(Nc2ncc(C#N)c(-c3ccc(C(C)(C)N)cc3)n2)cc1    138 °C
CCCCCC(=O)Nc1ccc2ccn(CCCCCCC(=O)NS(=O)(=O)c3ccccc3)c2c1    97 to 99 °C
ClCc1cccc(/C=C/c2cc(-c3ccsc3)cs2)c1    137 to 138 °C

// O=C(O)Cc1cccc(CCNC(=O)C2Cc3ccccc3N2S(=O)(=O)c2ccc(-c3cccc(C(F)(F)F)c3)cc2)c1 (centres undefined) : melting point value = 90 °C

For reference, reported melting point for COc1ccc(-c2nc(CNC(=O)c3ccc4n3Cc3ccccc3N(C(=O)c3ccc(-c5ccccc5C)c(C)c3)C4)no2)cc1 stands at 133 to 135 °C

Reported melting point for COc1cc2c(cc1OC)C(COCCN1CCN(c3ccc(F)cc3)CC1)OCCC2 (centres undefined) was 114 °C

Query CN(C)CCOc1ccc(Nc2nccc(-c3ccncc3)n2)cc1 yields melting point of 120 to 122 °C

Please fill in: melting point reported for C=CCOC(=O)NCc1ccc(C(=O)O)cc1 = 175 to 177 °C

melting point reading for COc1cc(Nc2c(C#N)cnc3cc(Cl)c([N+](=O)[O-])cc23)cc(OC)c1OC : 215 to 217 °C
